# targetOrTestSystem: CGRP antigen
# methodDescription: cell-based or functional assay
measureName: relative activity (%) vs C245
The reply should contain only the number, in %.

Worked cases, answers included:
binder	relative activity (%) vs C245
hu230 (antibody, V domains shown, 3C1 HC-3/3C1 LC-1) VH: QVQLVQSGSELKKPGASVKVSCKASGYTFTGYTMNWVRQAPGQGLEWMGLINPYIGNTHYNQKFKDRFVFSVDRSSSTAYLQISSLKAEDTAVYYCARELDSGFDYWGQGTLVTVSS VL: DVVMTQSPLSLPVTLGQPASISCRSSQNIVHSNGDTYLEWYQQRPGQSPRLLIYKVSNRFSGVPDRFSGSGSGTDFTLKISRVEAEDVGVYYCYQGSHVPWTFGQGTKLEIK	56
hu228 (antibody, human IgG4 S228P, kappa, V domains shown) VH: QVQLVQSGAEVKKPGASVKVSCKASGYTFTGYTMNWVRQAPGQRLEWMGLINPYIGNTHYNQKFKDRVTFTVDRSSSTAYMELSSLRSEDTAVYYCARELDSGFDYWGQGTLVTVSS VL: DVVMTQSPDSLAVSLGERATINCRSSQNIVHSNGDTYLEWYQQKPGQPPKLLIYKVSNRFSGVPDRFSGSGSGTDFTLTISSLQAEDVAVYYCYQGSHVPWTFGQGTKLEIKR	88

*Q* relative activity (%) vs C245 lookup needed for hu236 (antibody, V domains shown, 3C1 HC-4/3C1 LC-3) VH: QVQLVQSGAEVKKPGASVKVSCKASGYTFTGYTMNWVRQAPGQGLEWMGLINPYIGNTHYNQKFKDRVTFTVDRSSSTAYMELSRLRSDDTAVYYCARELDSGFDYWGQGTLVTVSS VL: DVVMTQSPDSLAVSLGERATINCRSSQNIVHSNGDTYLEWYQQKPGQPPKLLIYKVSNRFSGVPDRFSGSGSGTDFTLTISSLQAEDVAVYYCYQGSHVPWTFGQGTKLEIK , thanks.
*A* 55

*Q* Which relative activity (%) vs C245 is listed for hu225 (antibody, V domains shown, 3C1 HC-1/3C1 LC-4) VH: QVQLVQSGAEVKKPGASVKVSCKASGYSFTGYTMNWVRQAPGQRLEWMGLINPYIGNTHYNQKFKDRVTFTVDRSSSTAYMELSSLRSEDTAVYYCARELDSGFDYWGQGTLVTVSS VL: DVVMTQSPDSLAVSLGERATINCRSSQNIVHSNADTYLEWYQQKPGQPPKLLIYKVSNRFSGVPDRFSGSGSGTDFTLTISSLQAEDVAVYYCYQGSHVPWTFGQGTKLEIK ?
*A* 10

*Q* Please report the recorded relative activity (%) vs C245 for hu231 (antibody, human IgG4 S228P, kappa, V domains shown) VH: QVQLVQSGSELKKPGASVKVSCKASGYTFTGYTMNWVRQAPGQGLEWMGLINPYIGNTHYNQKFKDRFVFSVDRSSSTAYLQISSLKAEDTAVYYCARELDSGFDYWGQGTLVTVSS VL: DVVMTQTPLSLSVTPGQPASISCRSSQNIVHSNGDTYLEWYLQKPGQSPQLLIYKVSNRFSGVPDRFSGSGSGTDFTLKISRVEAEDVGVYYCYQGSHVPWTFGQGTKLEIKR .
*A* 91

*Q* What does the data say about its relative activity (%) vs C245? Entry: hu233 (antibody, V domains shown, 3C1 HC-3/3C1 LC-4) VH: QVQLVQSGSELKKPGASVKVSCKASGYTFTGYTMNWVRQAPGQGLEWMGLINPYIGNTHYNQKFKDRFVFSVDRSSSTAYLQISSLKAEDTAVYYCARELDSGFDYWGQGTLVTVSS VL: DVVMTQSPDSLAVSLGERATINCRSSQNIVHSNADTYLEWYQQKPGQPPKLLIYKVSNRFSGVPDRFSGSGSGTDFTLTISSLQAEDVAVYYCYQGSHVPWTFGQGTKLEIK
*A* 30

These data points were gathered from patent US20260125454A1.
